Cited source: patent US20150307520A1

Measured IC50 of individual entries
Molecular target: p110δ/p85α (Homo sapiens)
Sequence (O00329 whole entry): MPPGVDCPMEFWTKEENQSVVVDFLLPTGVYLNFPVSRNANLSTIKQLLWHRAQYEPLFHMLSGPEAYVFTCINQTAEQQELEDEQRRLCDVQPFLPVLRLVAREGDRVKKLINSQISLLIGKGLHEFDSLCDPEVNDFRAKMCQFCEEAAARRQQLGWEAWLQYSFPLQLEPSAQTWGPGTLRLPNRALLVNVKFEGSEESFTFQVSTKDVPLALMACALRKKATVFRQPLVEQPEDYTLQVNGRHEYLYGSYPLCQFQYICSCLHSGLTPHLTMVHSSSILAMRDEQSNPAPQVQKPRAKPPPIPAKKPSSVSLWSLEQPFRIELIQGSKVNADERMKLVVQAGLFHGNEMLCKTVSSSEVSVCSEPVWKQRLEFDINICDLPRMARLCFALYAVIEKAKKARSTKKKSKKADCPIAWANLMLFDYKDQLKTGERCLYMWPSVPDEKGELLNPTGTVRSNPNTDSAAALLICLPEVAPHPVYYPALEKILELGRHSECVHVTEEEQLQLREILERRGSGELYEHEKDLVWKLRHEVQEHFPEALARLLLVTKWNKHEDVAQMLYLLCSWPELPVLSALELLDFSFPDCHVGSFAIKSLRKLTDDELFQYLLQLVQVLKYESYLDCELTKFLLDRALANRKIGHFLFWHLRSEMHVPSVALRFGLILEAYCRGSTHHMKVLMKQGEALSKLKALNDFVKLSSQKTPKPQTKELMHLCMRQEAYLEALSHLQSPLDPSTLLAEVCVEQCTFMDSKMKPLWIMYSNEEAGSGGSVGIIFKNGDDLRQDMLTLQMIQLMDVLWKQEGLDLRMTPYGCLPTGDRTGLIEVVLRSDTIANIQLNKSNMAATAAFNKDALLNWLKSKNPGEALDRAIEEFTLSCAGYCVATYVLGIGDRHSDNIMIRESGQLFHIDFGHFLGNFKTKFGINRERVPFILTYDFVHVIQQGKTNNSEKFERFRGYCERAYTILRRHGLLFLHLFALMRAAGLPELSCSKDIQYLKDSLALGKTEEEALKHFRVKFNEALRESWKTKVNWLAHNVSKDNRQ
Sequence (P27986 whole entry partner): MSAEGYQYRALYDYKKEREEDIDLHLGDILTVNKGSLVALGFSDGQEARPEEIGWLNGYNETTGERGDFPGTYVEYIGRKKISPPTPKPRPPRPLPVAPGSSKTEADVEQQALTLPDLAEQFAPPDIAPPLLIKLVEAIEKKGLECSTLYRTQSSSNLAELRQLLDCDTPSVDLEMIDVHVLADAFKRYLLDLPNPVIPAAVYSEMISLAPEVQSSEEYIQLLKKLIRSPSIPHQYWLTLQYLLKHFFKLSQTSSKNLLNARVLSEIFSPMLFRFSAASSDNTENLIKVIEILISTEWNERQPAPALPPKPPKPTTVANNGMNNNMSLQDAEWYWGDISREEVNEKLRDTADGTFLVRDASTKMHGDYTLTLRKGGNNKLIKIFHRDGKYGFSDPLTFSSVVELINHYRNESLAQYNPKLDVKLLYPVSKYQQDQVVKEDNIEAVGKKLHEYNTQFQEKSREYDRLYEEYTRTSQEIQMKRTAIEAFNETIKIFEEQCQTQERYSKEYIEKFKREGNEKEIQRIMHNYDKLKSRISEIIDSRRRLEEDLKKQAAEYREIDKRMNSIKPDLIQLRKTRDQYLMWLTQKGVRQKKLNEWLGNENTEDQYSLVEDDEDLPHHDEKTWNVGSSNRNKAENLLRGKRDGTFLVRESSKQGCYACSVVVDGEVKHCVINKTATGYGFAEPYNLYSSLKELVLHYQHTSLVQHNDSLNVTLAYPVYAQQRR
Assay: Transcreener KINASE Assay, kinase inhibition of p110δ/p85α
Settings: read-out: PI3Kδ IC50
Give the number; nM is assumed, so skip it.

molecule	tgt	IC50 [nM]
O=c1c2c(Cl)ccn2nc([C@@H]2CCCN2c2nc(F)nc3[nH]cnc23)n1-c1ccccc1	p110δ/p85α (Homo sapiens)	1
O=c1c2c(Cl)ccn2cc(C2CCCN2c2ncnc3[nH]cnc23)n1-c1ccccc1 (centres unmarked)	p110δ/p85α (Homo sapiens)	6
N#Cc1c[nH]c2ncnc(N3CCC[C@H]3c3nn4ccc(Cl)c4c(=O)n3CC3CCCCC3)c12	p110δ/p85α (Homo sapiens)	76
COCc1ccn2nc([C@@H]3CCCN3c3ncnc4[nH]cc(C#N)c34)n(-c3ccccc3)c(=O)c12	p110δ/p85α (Homo sapiens)	3
COc1cccc(-n2c([C@@H]3CCN3c3ncnc4[nH]cnc34)nn3ccc(Cl)c3c2=O)c1	p110δ/p85α (Homo sapiens)	212
N#Cc1c[nH]c2ncnc(N3CC[C@H]3c3nn4ccc(Cl)c4c(=O)n3CC(F)F)c12	p110δ/p85α (Homo sapiens)	392
CC(Nc1nc(N)nc2c1C(=O)CCN2)c1cn2ccc(Cl)c2c(=O)n1-c1ccccc1 (centres unmarked)	p110δ/p85α (Homo sapiens)	0.4

Okay, next one:
Problem: Param item = "O=c1c2c(Cl)ccn2nc([C@@H]2CCCN2c2ncnc3[nH]cnc23)n1Cc1ccccn1" ; retrieve measured IC50.
Solution: 28
